Experimental Target: PARP7 (Homo sapiens (Human), UniProt Q7Z3E1)
Sequence (Q7Z3E1 whole entry): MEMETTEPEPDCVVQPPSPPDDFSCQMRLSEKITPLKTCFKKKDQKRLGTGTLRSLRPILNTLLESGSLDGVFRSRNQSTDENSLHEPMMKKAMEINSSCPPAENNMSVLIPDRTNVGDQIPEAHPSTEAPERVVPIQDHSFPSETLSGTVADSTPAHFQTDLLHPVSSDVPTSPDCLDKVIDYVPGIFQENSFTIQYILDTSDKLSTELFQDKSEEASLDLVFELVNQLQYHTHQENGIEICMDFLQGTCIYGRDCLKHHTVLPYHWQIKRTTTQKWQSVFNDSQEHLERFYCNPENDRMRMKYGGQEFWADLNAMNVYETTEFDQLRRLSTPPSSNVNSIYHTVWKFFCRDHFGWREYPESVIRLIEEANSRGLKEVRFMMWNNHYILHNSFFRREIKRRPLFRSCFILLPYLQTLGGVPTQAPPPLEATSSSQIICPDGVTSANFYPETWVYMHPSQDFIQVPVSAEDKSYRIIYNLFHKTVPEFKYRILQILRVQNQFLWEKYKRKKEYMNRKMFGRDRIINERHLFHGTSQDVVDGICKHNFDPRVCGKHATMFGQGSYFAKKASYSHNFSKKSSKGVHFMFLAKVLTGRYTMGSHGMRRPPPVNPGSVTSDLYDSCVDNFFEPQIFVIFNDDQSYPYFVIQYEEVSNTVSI
Protocol Summary: Enzymatic assay for inhibition of PARP7: TR-FRET displacement of biotinylated Probe A from the TIPARP active site
Assay Context: Table A-1
pIC50: −log10 of the molar value.
pIC50 for assorted compounds
Endpoint: pIC50

* CC(=O)N1CCC(Oc2ccc(F)c3c2CN(c2cn[nH]c(=O)c2C(F)(F)F)C3)CC1 | > 7.00
* COC[C@@H](COCCC(=O)N1CCN(c2cnc(C(F)(F)F)cn2)CC1)Nc1cn[nH]c(=O)c1C(F)(F)F | > 7.00
* O=C(c1cccc(OCC2c3ccccc3CN2c2cn[nH]c(=O)c2C(F)(F)F)c1)N1CCn2nncc2C1 (stereo not shown) | 6.00 to 7.00
* CC[C@@H](COc1cn[nH]c(=O)c1C(F)(F)F)OCCC(=O)N1CCN(c2ncc(Cl)cn2)CC1 [Example 591 Isomer B] | > 7.00
* N#Cc1cnc(N2CCN(C(=O)c3cccc(OC[C@H]4c5ccccc5CN4c4cn[nH]c(=O)c4C(F)(F)F)c3)CC2)cn1 | 6.00 to 7.00
* C[C@@H](COCCS(=O)(=O)N1CCN(c2ncc(C(F)(F)F)s2)CC1)Oc1cn[nH]c(=O)c1C(F)(F)F | > 7.00
* O=C(CCNC[C@H]1c2ccccc2CN1c1cn[nH]c(=O)c1C(F)(F)F)N1CCN(c2ncc(Cl)cn2)CC1 | ≤ 6.00

* * *

Experimental Target: PARP7 (Homo sapiens (Human))
Protocol Summary: Enzymatic assay for inhibition of PARP7: TR-FRET displacement of biotinylated Probe A from the TIPARP active site
Assay Context: Table A-1
IC50 for assorted compounds
Endpoint: IC50

* N#Cc1ccc(N2CCN(C(=O)CNCC[C@@H]3CCCN3c3cn[nH]c(=O)c3C(F)(F)F)CC2)nc1 [Example 89] | < 0.1 µM
* O=C(c1cncc(OC[C@@H]2c3ccccc3CN2c2cn[nH]c(=O)c2C(F)(F)F)c1)N1CCN(c2ncc(C(F)(F)F)cn2)CC1 [Example 392] | < 0.1 µM
* CN(CC1c2ccccc2CN1c1cn[nH]c(=O)c1C(F)(F)F)c1cccc(C(=O)O)c1 (centres unmarked) [Example 345] | ≥ 1 µM
* CN(C[C@@H]1CCCN1c1cn[nH]c(=O)c1C(F)(F)F)C(=O)CCN1CCN(c2ccc(C#N)cn2)CC1 [Example 138] | ≥ 1 µM
* CC(=O)N1CCC(Oc2ccnc3c2CN(c2cn[nH]c(=O)c2C(F)(F)F)C3)CC1 [Example 338] | < 0.1 µM
* Cc1c(N2Cc3ccccc3C2)cn[nH]c1=O [Example 159] | ≥ 1 µM
* N#Cc1ccc(N2CCN(C(=O)C/C=C\OC[C@H]3c4ccccc4CN3c3cn[nH]c(=O)c3C(F)(F)F)CC2)nc1 (single isomer, unassigned; isomer b) [Example 79 Isomer B] | < 0.1 µM
* O=c1[nH]ncc(N2Cc3cccc(NC4CCOCC4)c3C2)c1C(F)(F)F [Example 290] | 0.1 to 1 µM

* * *

IC50 for assorted compounds
Experimental Target: PARP7 (Homo sapiens (Human), UniProt Q7Z3E1)
Protocol Summary: Enzymatic assay for inhibition of PARP7: TR-FRET displacement of biotinylated Probe A from the TIPARP active site
Format: binding
Assay Context: Table A-1
Endpoint: IC50

- N#Cc1cccnc1N1CCN(C(=O)c2cccc(OCC3c4ccccc4CN3c3cn[nH]c(=O)c3C(F)(F)F)c2)CC1 (stereo not shown): < 100 nM
- N#Cc1ccc(N2CCN(C(=O)c3cccc(OC[C@@H]4CCCN4c4cn[nH]c(=O)c4C(F)(F)F)c3)CC2)nc1: < 100 nM
- C[C@@H](COCCC(=O)N1CCN(c2ncc(C(F)(F)F)cn2)C[C@@H]1C)Nc1cn[nH]c(=O)c1C(F)(F)F (single isomer, unassigned) [Example 619 Isomer A]: < 100 nM
- O=c1[nH]ncc(N2Cc3cccc(OCC4CCCO4)c3C2)c1C(F)(F)F (stereo not shown): < 100 nM
- C[C@@H](CCOCCC(=O)N1CCN(c2ncc(C(F)(F)F)cn2)CC1)Nc1cn[nH]c(=O)c1C(F)(F)F: < 100 nM
- N#Cc1ccc(N2CCN(C(=O)c3cc(OCC4c5ccccc5CN4c4cn[nH]c(=O)c4C(F)(F)F)cnc3F)CC2)nc1 (stereo not shown): < 100 nM
- CN1CCN(c2cccc3c2CN(c2cn[nH]c(=O)c2C(F)(F)F)C3)CC1: 100 to 1000 nM
- O=c1[nH]ncc(N2Cc3ccc(O[C@H]4CCCNC4)cc3C2)c1C(F)(F)F: < 100 nM
- N#Cc1ccc(NC2CCN(C(=O)CCOC[C@@H]3CCCN3c3cn[nH]c(=O)c3C(F)(F)F)CC2)nc1: < 100 nM
- O=C(CCOC[C@H](Cc1ccncc1)Nc1cn[nH]c(=O)c1C(F)(F)F)N1CCN(c2ncc(C(F)(F)F)cn2)CC1: < 100 nM
- O=C(c1cncc(OC[C@H]2c3ccccc3CN2c2cn[nH]c(=O)c2C(F)(F)F)c1)N1CCN(c2ncc(C(F)(F)F)cn2)CC1: 100 to 1000 nM
- N#Cc1ccc(N2CCN(C(=O)COCC[C@@H]3CCCN3c3cn[nH]c(=O)c3C(F)(F)F)CC2)nc1: < 100 nM
- O=C(CCOC[C@@H]1CCCN1c1cn[nH]c(=O)c1C(F)(F)F)NC1CCC(Nc2ccccn2)CC1 (single isomer, unassigned; isomer a) [Example 81 Isomer A]: 100 to 1000 nM
- O=C(C[C@@H]1CC[C@H](CNc2cn[nH]c(=O)c2C(F)(F)F)O1)N1CCN(c2ncc(Cl)cn2)CC1 (single isomer, unassigned) [Example 567 Isomer B]: < 100 nM
- N#Cc1cnc(N2CCN(C(=O)c3cccc(OC[C@H]4c5ccccc5CN4c4cn[nH]c(=O)c4C(F)(F)F)c3)CC2)nc1: ≥ 1000 nM
- O=C(c1cccc(OCC2c3ccccc3CN2c2cn[nH]c(=O)c2C(F)(F)F)c1)N1CCN(c2ccc(C(F)(F)F)cn2)CC1 (stereo not shown): < 100 nM
- N#Cc1ccc(N2CCN(C(=O)c3cccc(NCC4CCCN4c4cn[nH]c(=O)c4C(F)(F)F)c3)CC2)nc1 (stereo not shown): < 100 nM
- O=C(C[C@H]1CC[C@@H](COc2cn[nH]c(=O)c2C(F)(F)F)O1)N1CCN(c2ncc(Cl)cn2)CC1 (single isomer, unassigned) [Example 565 Isomer C]: < 100 nM
- N#Cc1ccc(N2CCN(C(=O)C[C@H]3CC[C@@H]([C@@H]4CCCN4c4cn[nH]c(=O)c4C(F)(F)F)O3)CC2)nc1 [Example 141B]: < 100 nM
- N#Cc1ccc(N2CCN(C(=O)C3CCC(OCC4CCN(c5cn[nH]c(=O)c5C(F)(F)F)C4)CC3)CC2)nc1 (stereo not shown): < 100 nM
- N#Cc1ccc(N2CCN(C(=O)COCCNc3cn[nH]c(=O)c3C(F)(F)F)CC2)nc1: < 100 nM
- N#Cc1cnc(N2CCN(C(=O)c3cccc(OC[C@@H]4CCCN4c4cn[nH]c(=O)c4C(F)(F)F)c3)CC2)nc1: < 100 nM
- N#Cc1ccc(NC2CN(C(=O)CCOC[C@@H]3CCCN3c3cn[nH]c(=O)c3C(F)(F)F)C2)nc1: < 100 nM
- N#Cc1ccc(N2CCN(C(=O)CCOCCNc3cn[nH]c(=O)c3Cl)CC2)nc1: < 100 nM
- O=C(CCOC[C@H](CO)Nc1cn[nH]c(=O)c1C(F)(F)F)N1CCN(c2ncc(Cl)cn2)CC1: < 100 nM
- O=C(c1cccc(OCC2c3ccccc3CN2c2cn[nH]c(=O)c2C(F)(F)F)c1)N1CCn2nccc2C1 (stereo not shown): 100 to 1000 nM
- O=C(c1cccc(OCC2c3ccccc3CN2c2cn[nH]c(=O)c2C(F)(F)F)c1)N1CCNCC1 (stereo not shown): ≥ 1000 nM
- O=c1[nH]ncc(N2Cc3ccnc(OCc4cccnc4)c3C2)c1C(F)(F)F: < 100 nM

* * *

Experimental Target: UniProt:Q7Z3E1
Protocol Summary: Enzymatic assay for inhibition of PARP7: TR-FRET displacement of biotinylated Probe A from the TIPARP active site
Assay Context: Table A-1
Endpoint: IC50

* N#Cc1ccc(N2CCN(C(=O)c3ccnc(OC[C@@H]4CCCN4c4cn[nH]c(=O)c4C(F)(F)F)c3)CC2)nc1 | < 0.1 µM
* COC[C@@H](COCCC(=O)N1CCN(c2ccc(C(F)(F)F)cn2)CC1)Nc1cn[nH]c(=O)c1C(F)(F)F | < 0.1 µM
* O=c1[nH]ncc(N2Cc3cccc(OC[C@H]4CCCO4)c3C2)c1C(F)(F)F | < 0.1 µM
* CC1c2ccccc2CN1c1cn[nH]c(=O)c1C(F)(F)F (centres unmarked) | 0.1 to 1 µM
* N#Cc1ccc(N2CCN(C(=O)CCOCC3CCCCN3c3cn[nH]c(=O)c3C(F)(F)F)CC2)nc1 (centres unmarked) | 0.1 to 1 µM
* C[C@@H](COCCC(=O)N1CCN(c2ncccc2C(F)(F)F)CC1)Nc1cn[nH]c(=O)c1C(F)(F)F | < 0.1 µM
* CC(=O)N1CCN(C(=O)c2cccc(OC[C@@H]3CCCN3c3cn[nH]c(=O)c3C(F)(F)F)c2)CC1 | 0.1 to 1 µM
* O=c1[nH]ncc(N2Cc3cccc(NC4CCCOC4)c3C2)c1C(F)(F)F (centres unmarked) | 0.1 to 1 µM
